Recorded Emax, one value per entry.
Molecular target: human FXR (NR1H4) (Homo sapiens (Human))
Assay: Human FXR (NR1H4) Assay (Gal4 promoter driven luciferase reporter, Indigo Bioscience kit)
Format: cell-based
Settings: read-out: Efficacy (%)
# unit: % | format: bare number

compound_structure_string=CC[C@H]1[C@@H](O)[C@@H]2[C@H](CC[C@]3(C)[C@@H]([C@H](C)CCOC(=O)NS(=O)(=O)c4nccs4)CC[C@@H]23)[C@@]2(C)CC[C@@H](O)C[C@@H]12 experimental_readout=Emax reported_measurement=34
compound_structure_string=CC[C@H]1[C@@H](O)[C@@H]2[C@H](CC[C@]3(C)[C@@H]([C@H](C)CCOC(=O)NCCSC)CC[C@@H]23)[C@@]2(C)CC[C@@H](O)C[C@@H]12 experimental_readout=Emax reported_measurement=246
compound_structure_string=CC[C@H]1[C@@H](O)[C@@H]2[C@H](CC[C@]3(C)[C@@H]([C@H](C)CCCOC(=O)NCc4ccccc4)CC[C@@H]23)[C@@]2(C)CC[C@@H](O)C[C@@H]12 experimental_readout=Emax reported_measurement=225
compound_structure_string=CC[C@H]1[C@@H](O)[C@@H]2[C@H](CC[C@]3(C)[C@@H]([C@H](C)COC(=O)NS(=O)(=O)c4ccc(N5CCCC5)nc4)CC[C@@H]23)[C@@]2(C)CC[C@@H](O)C[C@@H]12 experimental_readout=Emax reported_measurement=216

Next:
Q: Please report the recorded Emax for CC[C@H]1[C@@H](O)[C@@H]2[C@H](CC[C@]3(C)[C@@H]([C@H](C)CCCOC(=O)NS(=O)(=O)c4ccc(C)cc4)CC[C@@H]23)[C@@]2(C)CC[C@@H](O)C[C@@H]12 .
A: 422

###

Biological target: human FXR (NR1H4) (Homo sapiens (Human), UniProt Q96RI1)
Sequence (Q96RI1 whole entry, the tested form may be a part): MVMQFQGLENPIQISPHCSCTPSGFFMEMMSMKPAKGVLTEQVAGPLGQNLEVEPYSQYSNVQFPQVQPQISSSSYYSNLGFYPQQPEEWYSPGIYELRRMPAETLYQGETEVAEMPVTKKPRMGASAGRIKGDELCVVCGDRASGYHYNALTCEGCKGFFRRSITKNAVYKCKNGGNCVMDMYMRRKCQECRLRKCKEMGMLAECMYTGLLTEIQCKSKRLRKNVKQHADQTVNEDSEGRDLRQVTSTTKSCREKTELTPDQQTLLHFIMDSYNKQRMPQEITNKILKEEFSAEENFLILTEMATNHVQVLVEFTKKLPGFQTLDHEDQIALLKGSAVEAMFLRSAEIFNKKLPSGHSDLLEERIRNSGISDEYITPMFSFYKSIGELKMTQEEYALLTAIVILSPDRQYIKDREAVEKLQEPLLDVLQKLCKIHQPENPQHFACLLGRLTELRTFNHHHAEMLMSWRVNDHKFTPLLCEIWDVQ
Experiment: Human FXR (NR1H4) Assay (Gal4 promoter driven luciferase reporter, Indigo Bioscience kit);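 for Efficacy (%): 100% equals the efficacy of CDCA; efficacy normalized to CDCA set as 100%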
Type: cell-based
Details: read-out: Efficacy (%)
// label = Criterion met if Emax is not less than 300%, otherwise Criterion not met

Answered examples (2):
compound="CC[C@H]1[C@@H](O)[C@@H]2[C@H](CC[C@]3(C)[C@@H]([C@H](C)COC(=O)NS(=O)(=O)C4CCCCC4)CC[C@@H]23)[C@@]2(C)CC[C@@H](O)C[C@@H]12 [Example 8]" category="Criterion met"
compound="CC[C@H]1[C@@H](O)[C@@H]2[C@H](CC[C@]3(C)[C@@H]([C@H](C)CCCOC(=O)NC4CC4)CC[C@@H]23)[C@@]2(C)CC[C@@H](O)C[C@@H]12 [Example 122]" category="Criterion not met"

Next item in the queue.
Q: Item CC[C@H]1[C@@H](O)[C@@H]2[C@H](CC[C@]3(C)[C@@H]([C@H](C)CCOC(=O)NS(=O)(=O)c4ccc(C)cc4)CC[C@@H]23)[C@@]2(C)CC[C@@H](O)C[C@@H]12 [Example 104-b] with Emax of 300% or above?
A: Criterion met

###

Recorded Emax, one value per entry.
Molecular target: human FXR (NR1H4) (Homo sapiens (Human), UniProt Q96RI1)
Experiment: Human FXR (NR1H4) Assay (Gal4 promoter driven luciferase reporter, Indigo Bioscience kit);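 for Efficacy (%): 100% equals the efficacy of CDCA; efficacy normalized to CDCA set as 100%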
Assay type: cell-based
Details: read-out: Efficacy (%)
# unit: % | format: bare number

Take a look at these entries with their results.
molecule="CC[C@H]1[C@@H](O)[C@@H]2[C@H](CC[C@]3(C)[C@@H]([C@H](C)CCOC(=O)NC4CCCC4)CC[C@@H]23)[C@@]2(C)CC[C@@H](O)C[C@@H]12 [Example 134]" study_system="human FXR (NR1H4) (Homo sapiens (Human), UniProt Q96RI1)" experimental_readout=Emax scale_unit=% reported_measurement=267
molecule="CC[C@H]1[C@@H](O)[C@@H]2[C@H](CC[C@]3(C)[C@@H]([C@H](C)CCOC(=O)Nc4cncc(Cl)c4)CC[C@@H]23)[C@@]2(C)CC[C@@H](O)C[C@@H]12 [Example 194]" study_system="human FXR (NR1H4) (Homo sapiens (Human), UniProt Q96RI1)" experimental_readout=Emax scale_unit=% reported_measurement=170
molecule="CC[C@H]1[C@@H](O)[C@@H]2[C@H](CC[C@]3(C)[C@@H]([C@H](C)COC(=O)NS(=O)(=O)c4ccc(N5CCC5)nc4)CC[C@@H]23)[C@@]2(C)CC[C@@H](O)C[C@@H]12 [Example 44-c]" study_system="human FXR (NR1H4) (Homo sapiens (Human), UniProt Q96RI1)" experimental_readout=Emax scale_unit=% reported_measurement=183
molecule="CCCCCNC(=O)OCC[C@@H](C)[C@H]1CC[C@H]2[C@@H]3[C@H](O)[C@H](CC)[C@@H]4C[C@H](O)CC[C@]4(C)[C@H]3CC[C@]12C [Example 150]" study_system="human FXR (NR1H4) (Homo sapiens (Human), UniProt Q96RI1)" experimental_readout=Emax scale_unit=% reported_measurement=303

Next:
Q: Please report the recorded Emax for CC[C@H]1[C@@H](O)[C@@H]2[C@H](CC[C@]3(C)[C@@H]([C@H](C)CCOC(=O)NS(=O)(=O)c4ccc5c(c4)OCCO5)CC[C@@H]23)[C@@]2(C)CC[C@@H](O)C[C@@H]12 [Example 90] .
A: 225

###

Target: UniProt:Q96RI1
Test: Human FXR (NR1H4) Assay (Gal4 promoter driven luciferase reporter, Indigo Bioscience kit)
Assay type: cell-based
Settings: Human FXR (NR1H4) Assay, potency ranges
Recorded EC50, one value per entry.

Take a look at these entries with their results.
compound_structure_string=CC[C@H]1[C@@H](O)[C@@H]2[C@H](CC[C@]3(C)[C@@H]([C@H](C)CCOC(=O)Nc4cncc(Cl)c4)CC[C@@H]23)[C@@]2(C)CC[C@@H](O)C[C@@H]12 reported_measurement="1000 to 10000 nM"
compound_structure_string=CC[C@H]1[C@@H](O)[C@@H]2[C@H](CC[C@]3(C)[C@@H]([C@H](C)CCOC(=O)NS(=O)(=O)N4CC(F)(F)C4)CC[C@@H]23)[C@@]2(C)CC[C@@H](O)C[C@@H]12 reported_measurement="< 100 nM"
compound_structure_string=CC[C@H]1[C@@H](O)[C@@H]2[C@H](CC[C@]3(C)[C@@H]([C@H](C)COC(=O)NCc4ccccc4)CC[C@@H]23)[C@@]2(C)CC[C@@H](O)C[C@@H]12 reported_measurement="1000 to 10000 nM"

Q: Please report the recorded EC50 for CC[C@H]1[C@@H](O)[C@@H]2[C@H](CC[C@]3(C)[C@@H]([C@H](C)CCOC(=O)NS(=O)(=O)C(C)C)CC[C@@H]23)[C@@]2(C)CC[C@@H](O)C[C@@H]12 .
A: < 100 nM

Q: Please report the recorded EC50 for CC[C@H]1[C@@H](O)[C@@H]2[C@H](CC[C@]3(C)[C@@H]([C@H](C)CCOC(=O)NS(=O)(=O)CCc4cccc(Cl)c4)CC[C@@H]23)[C@@]2(C)CC[C@@H](O)C[C@@H]12 .
A: 100 to 1000 nM

###

Target: human FXR (NR1H4) (Homo sapiens (Human), UniProt Q96RI1)
Assay: Human FXR (NR1H4) Assay (Gal4 promoter driven luciferase reporter, Indigo Bioscience kit)
Conditions: Human FXR (NR1H4) Assay, potency ranges
Recorded EC50, one value per entry.

Take a look at these entries with their results.
compound_structure_string=CC[C@H]1[C@@H](O)[C@@H]2[C@H](CC[C@]3(C)[C@@H]([C@H](C)CCOC(=O)N4C[C@@H](C)O[C@@H](C)C4)CC[C@@H]23)[C@@]2(C)CC[C@@H](O)C[C@@H]12 study_system="human FXR (NR1H4) (Homo sapiens (Human), UniProt Q96RI1)" reported_measurement="0.1 to 1 µM"
compound_structure_string=CC[C@H]1[C@@H](O)[C@@H]2[C@H](CC[C@]3(C)[C@@H]([C@H](C)CCOC(=O)N4CC(CO)C4)CC[C@@H]23)[C@@]2(C)CC[C@@H](O)C[C@@H]12 study_system="human FXR (NR1H4) (Homo sapiens (Human), UniProt Q96RI1)" reported_measurement="< 0.1 µM"
compound_structure_string=CC[C@H]1[C@@H](O)[C@@H]2[C@H](CC[C@]3(C)[C@@H]([C@H](C)CCCOC(=O)NS(C)(=O)=O)CC[C@@H]23)[C@@]2(C)CC[C@@H](O)C[C@@H]12 study_system="human FXR (NR1H4) (Homo sapiens (Human), UniProt Q96RI1)" reported_measurement="1 to 10 µM"
compound_structure_string=CC[C@H]1[C@@H](O)[C@@H]2[C@H](CC[C@]3(C)[C@@H]([C@H](C)CCOC(=O)NS(=O)(=O)c4cnn(C)c4)CC[C@@H]23)[C@@]2(C)CC[C@@H](O)C[C@@H]12 study_system="human FXR (NR1H4) (Homo sapiens (Human), UniProt Q96RI1)" reported_measurement="1 to 10 µM"
compound_structure_string=CC[C@H]1[C@@H](O)[C@@H]2[C@H](CC[C@]3(C)[C@@H]([C@H](C)CCOC(=O)NS(=O)(=O)CCOC)CC[C@@H]23)[C@@]2(C)CC[C@@H](O)C[C@@H]12 study_system="human FXR (NR1H4) (Homo sapiens (Human), UniProt Q96RI1)" reported_measurement="0.1 to 1 µM"

Next:
Q: Please report the recorded EC50 for CC[C@H]1[C@@H](O)[C@@H]2[C@H](CC[C@]3(C)[C@@H]([C@H](C)CCOC(=O)NS(=O)(=O)c4ccc(C(F)(F)F)cc4)CC[C@@H]23)[C@@]2(C)CC[C@@H](O)C[C@@H]12 .
A: < 0.1 µM
